experiment: Half life in rat liver microsomes at 1 uM up to 60 mins in presence of NADPH by LC-MS/MS analysis; type: ADME, Microsome
MEASUREMENT_LABEL: half-life at 1 µM (min)
Form entry: value (min) — number only.

Q: Data request, read-out half-life at 1 µM, for CCOC(=O)c1ccc(-n2c(/C=C3\OC(=O)c4c3cc(C)[nH]c4=O)ccc2CO)cc1
A: 15

---

experiment: Permeability of compound at pH 7.4 after 4 hrs by GIT PAMPA method; assay type: ADME; conditions: read-out: permeability
MEASUREMENT_LABEL: Papp at 4 h (×10⁻⁶ cm/s)
Form entry: value (×10⁻⁶ cm/s) — number only.

Q: Data request, read-out Papp at 4 h, for CCOC(=O)c1ccc(-n2c(/C=C3\OC(=O)c4c3cc(C)[nH]c4=O)ccc2CO)cc1
A: 15
